Parameter solubility at 24 h: see the listing below.
Experimental protocol: Aqueous solubility (buffer vs acetonitrile/water, 24 h shaking, LC-UV)
Format: physicochemical
Test settings: kinetic from dmso stock, pH 6.8 buffer, 2.5% DMSO, ">" = more than 90% dissolved

# annotated cases, reported solubility at 24 h shown
| Compound | solubility at 24 h |
| --- | --- |
| CS(=O)(=NC#N)c1ccc(-c2ccc(-c3nc4[nH]c(O[C@@H]5CO[C@H]6[C@@H]5OC[C@H]6O)nc4cc3Cl)cc2)cc1 (stereo partly drawn) [Example 7] | < 1 µg/mL |
| CS(C)(=O)=Nc1ccc(-c2ccc(-c3nc4[nH]c(O[C@@H]5CO[C@H]6[C@@H]5OC[C@H]6O)nc4cc3Cl)cc2)cn1 [Example 22] | < 1 µg/mL |

Now, please, on to the next compound.
QUERY: Look at this compound and give its reported solubility at 24 h. CS(=N)(=O)Cc1ccc(-c2ccc(-c3nc4[nH]c(O[C@@H]5CO[C@H]6[C@@H]5OC[C@H]6O)nc4cc3Cl)cc2)cc1 (stereo partly drawn) [Example 52]
RESULT: < 1 µg/mL
